# System tested: Complement component 3 (C3) (Homo sapiens) (UniProt P01024+P01024)
# Sequence (P01024 23-667, chain 1 of 2): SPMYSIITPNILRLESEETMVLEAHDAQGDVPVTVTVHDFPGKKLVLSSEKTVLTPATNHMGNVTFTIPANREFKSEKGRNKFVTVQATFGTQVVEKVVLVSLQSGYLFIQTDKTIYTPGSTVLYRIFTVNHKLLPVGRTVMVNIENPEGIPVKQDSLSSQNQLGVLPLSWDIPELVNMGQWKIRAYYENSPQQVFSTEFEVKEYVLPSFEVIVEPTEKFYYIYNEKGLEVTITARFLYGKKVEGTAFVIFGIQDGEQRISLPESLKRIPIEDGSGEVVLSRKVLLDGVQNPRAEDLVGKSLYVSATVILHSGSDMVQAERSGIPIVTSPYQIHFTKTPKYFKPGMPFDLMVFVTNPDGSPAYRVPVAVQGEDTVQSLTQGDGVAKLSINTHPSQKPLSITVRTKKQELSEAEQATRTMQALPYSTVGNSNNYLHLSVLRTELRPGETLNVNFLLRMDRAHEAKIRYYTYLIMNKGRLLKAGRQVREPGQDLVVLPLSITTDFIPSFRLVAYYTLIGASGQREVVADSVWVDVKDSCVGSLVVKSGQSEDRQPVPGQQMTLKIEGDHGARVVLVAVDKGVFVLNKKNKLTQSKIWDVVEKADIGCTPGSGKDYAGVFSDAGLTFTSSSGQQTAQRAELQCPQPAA
# Sequence (P01024 672-1663, chain 2 of 2): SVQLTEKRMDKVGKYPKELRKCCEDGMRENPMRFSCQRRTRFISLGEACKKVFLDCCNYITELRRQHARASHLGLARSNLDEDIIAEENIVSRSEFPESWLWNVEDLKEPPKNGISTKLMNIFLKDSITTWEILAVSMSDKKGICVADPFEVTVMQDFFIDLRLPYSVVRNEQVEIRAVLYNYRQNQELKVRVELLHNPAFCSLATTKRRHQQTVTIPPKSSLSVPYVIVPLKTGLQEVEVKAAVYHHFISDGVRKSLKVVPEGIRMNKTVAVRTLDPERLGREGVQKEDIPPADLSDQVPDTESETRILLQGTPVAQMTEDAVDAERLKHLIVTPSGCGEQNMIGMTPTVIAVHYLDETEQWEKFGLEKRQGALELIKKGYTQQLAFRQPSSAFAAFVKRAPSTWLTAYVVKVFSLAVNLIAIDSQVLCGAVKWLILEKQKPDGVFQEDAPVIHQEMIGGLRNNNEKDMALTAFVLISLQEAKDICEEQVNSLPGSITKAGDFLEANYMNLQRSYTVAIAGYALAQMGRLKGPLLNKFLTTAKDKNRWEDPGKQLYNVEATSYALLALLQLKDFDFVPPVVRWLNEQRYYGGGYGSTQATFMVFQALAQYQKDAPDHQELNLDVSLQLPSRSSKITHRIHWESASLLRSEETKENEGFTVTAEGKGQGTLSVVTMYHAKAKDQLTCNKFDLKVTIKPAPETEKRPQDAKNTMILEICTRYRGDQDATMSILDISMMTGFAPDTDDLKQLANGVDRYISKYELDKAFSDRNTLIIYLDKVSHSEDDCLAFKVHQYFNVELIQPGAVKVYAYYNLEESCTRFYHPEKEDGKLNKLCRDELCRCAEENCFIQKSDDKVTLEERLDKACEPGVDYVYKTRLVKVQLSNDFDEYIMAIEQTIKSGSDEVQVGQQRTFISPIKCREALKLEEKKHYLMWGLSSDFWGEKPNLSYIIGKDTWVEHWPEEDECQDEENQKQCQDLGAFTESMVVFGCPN
# Assay summary: filter
# Assay conditions: all U = NapdU; C3-spacer replaces C1; 3'-3' idT; SB18T0.01, 37C
Quantity measured: pKd
In plain terms, pKd is the concentration in mol/L turned into minus its base-10 logarithm.

Asked: pKd for CGGUGACUCAAUAGUCCGUACGUUCCCGG [8491-94_30] ?
Given back: 10.21

---

# System tested: Complement component 3 (C3) (Homo sapiens) (UniProt P01024+P01024)
# Assay summary: filter
# Assay conditions: all U = NapdU; C3-spacer replaces C8; 3'-3' idT; SB18T0.01, 37C
Quantity measured: Kd (nM)
Numeric only. Scale: nM

Asked: Return Kd measured with Complement component 3 (C3) (Homo sapiens) (UniProt P01024+P01024) given this sequence: CCGGUGAUCAAUAGUCCGUACGUUCCCGG [8491-94_36]
Given back: 0.0315
